As shown below, each of these variants has a reported percent of parent value.
B1: Arl15-AL-Myc [human] / GST-Smad4 [not stated] (parent)
chain 1: MSDLRITEAFLYMDYLCFRALCCKGPPPARPEYDLVCIGLTGSGKTSLLSKLCSESPDNVVSTTGFSIKAVPFQNAILNVKELGGLDNIRKYWSRYYQGSQGVIFVLDSASSEDDLEAARNELHSALQHPQLCTLPFLILANHQDKPAARSVQEIKKYFELEPLARGKRWILQPCSLDDMDALKDSFSQLINLLEEKDHEAVRM
chain 2: MDNMSITNTPTSNDACLSIVHSLMCHRQGGESETFAKRAIESLVKKLKEKKDELDSLITAITTNGAHPSKCVTIQRTLDGRLQVAGRKGFPHVIYARLWRWPDLHKNELKHVKYCQYAFDLKCDSVCVNPYHYERVVSPGIDLSGLTLQSNAPSSMMVKDEYVHDFEGQPSLSTEGHSIQTIQHPPSNRASTETYSTPALLAPSESNATSTANFPNIPVASTSQPASILGGSHSEGLLQIASGPQPGQQQNGFTGQPATYHHNSTTTWTGSRTAPYTPNLPHHQNGHLQHHPPMPPHPGHYWPVHNELAFQPPISNHPAPEYWCSIAYFEMDVQVGETFKVPSSCPIVTVDGYVDPSGGDRFCLGQLSNVHRTEAIERARLHIGKGVQLECKGEGDVWVRCLSDHAVFVQSYYLDREAGRAPGDAVHKIYPSAYIKVFDLRQCHRQMQQQAATAQAAAAAQAAAVAGNIPGPGSVGGIAPAISLSAAAGIGVDDLRRLCILRMSFVKGWGPDYPRQSIKETPCWIEIHLHRALQLLDEVLHTMPIADPQPLD

# Variants of: B1
# assay.name: GST pull-down, immunoblot band quantification
# setup.conditions: with GST-Smad4; HeLa cell lysates; bead-immobilized GST-Smad4; parent: 100

variant.code | percent of parent
chain 1 E82K | 95
chain 1 Y96F | 47
chain 1 R90L | 22
chain 1 R95C | 38
